- testTarget: EGFR L858R/T790M (Homo sapiens, UniProt P00533, L858R/T790M)
- Sequence (P00533 25-1210 T790M/L858R): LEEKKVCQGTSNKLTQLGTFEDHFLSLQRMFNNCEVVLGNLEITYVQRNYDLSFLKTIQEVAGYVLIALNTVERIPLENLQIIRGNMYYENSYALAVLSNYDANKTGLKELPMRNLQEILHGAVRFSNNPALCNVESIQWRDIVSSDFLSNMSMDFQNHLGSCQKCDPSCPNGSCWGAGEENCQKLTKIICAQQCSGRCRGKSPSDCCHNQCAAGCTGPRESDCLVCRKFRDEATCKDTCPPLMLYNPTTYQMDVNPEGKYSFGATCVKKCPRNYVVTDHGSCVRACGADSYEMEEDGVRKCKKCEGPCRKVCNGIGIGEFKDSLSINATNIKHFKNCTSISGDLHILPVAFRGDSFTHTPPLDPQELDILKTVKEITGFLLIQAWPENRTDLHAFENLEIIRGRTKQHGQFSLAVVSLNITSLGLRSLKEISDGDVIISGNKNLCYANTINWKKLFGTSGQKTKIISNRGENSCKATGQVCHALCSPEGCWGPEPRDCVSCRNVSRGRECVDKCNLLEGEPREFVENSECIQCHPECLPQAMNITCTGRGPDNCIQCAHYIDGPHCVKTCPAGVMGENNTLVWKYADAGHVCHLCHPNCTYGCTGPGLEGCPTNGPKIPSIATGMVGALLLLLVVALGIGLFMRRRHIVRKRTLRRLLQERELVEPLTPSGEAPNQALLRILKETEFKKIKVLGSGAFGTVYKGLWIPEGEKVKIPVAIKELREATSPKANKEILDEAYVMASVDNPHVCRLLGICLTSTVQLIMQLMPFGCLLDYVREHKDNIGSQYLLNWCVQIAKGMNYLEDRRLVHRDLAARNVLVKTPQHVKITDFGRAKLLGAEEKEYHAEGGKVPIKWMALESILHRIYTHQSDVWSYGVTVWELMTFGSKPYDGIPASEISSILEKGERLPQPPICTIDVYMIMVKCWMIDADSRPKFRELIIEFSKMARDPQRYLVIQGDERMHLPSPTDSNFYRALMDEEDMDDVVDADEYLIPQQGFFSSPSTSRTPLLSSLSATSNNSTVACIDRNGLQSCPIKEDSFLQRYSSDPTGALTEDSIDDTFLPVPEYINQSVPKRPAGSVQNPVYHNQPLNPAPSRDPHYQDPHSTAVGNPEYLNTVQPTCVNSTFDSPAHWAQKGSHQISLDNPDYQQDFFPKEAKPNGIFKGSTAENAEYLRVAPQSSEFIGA
- testDetails: HTRF-based EGFR biochemical assay, L858R/T790M
- condition: 100 μM ATP, enzyme 0.02 nM
So I've got a bunch of compounds here, and I need their IC50 values.

Consider the worked cases shown below.
CSc1nc(-c2ccccc2NC(=O)Nc2ccc(Br)cc2)c(-c2ccnc(NC(C)=O)c2)[nH]1 [Compound 019] ... > 100 µM
CSc1nc(-c2ccccc2NC(=O)CCc2ccccc2)c(-c2ccnc(NC(C)=O)c2)[nH]1 [Compound 033] ... > 100 µM
CSc1nc(-c2cccc(NC(=O)C3CC3)c2)c(-c2ccnc(NC(C)=O)c2)[nH]1 [Compound 003] ... 14.5 µM
CSc1nc(-c2cccc(NC(=O)C3CCCC3)c2)c(-c2ccnc(NC(C)=O)c2)[nH]1 [Compound 001] ... 16.7 µM
C=CC(=O)Nc1ccc(OC)c(Nc2cc(-c3[nH]c(SC)nc3-c3cccc(NC(=O)c4ccccc4CN4Cc5ccccc5C4=O)c3)ccn2)c1 [Compound 064] ... 0.008 µM
CSc1nc(-c2cccc3c2CCC3NC(=O)c2cccc3[nH]ccc23)c(-c2ccnc(NC(C)=O)c2)[nH]1 (stereo not shown) [Compound 056] ... > 100 µM

Please report IC50 for every entry that follows.
1. CSc1nc(-c2cccc3c2CCC3NC(=O)c2cc(F)cc(F)c2)c(-c2ccnc(NC(C)=O)c2)[nH]1 (stereo not shown) [Compound 057]
2. CSc1nc(-c2ccnc(NC(C)=O)c2)c(-c2cccc(NC(=O)c3c(F)ccc(O)c3CN3Cc4ccccc4C3=O)c2)n1C [Compound 059]
3. CSc1nc(-c2ccccc2NC(=O)c2ccccc2O)c(-c2ccnc(NC(C)=O)c2)[nH]1 [Compound 032]
4. CSc1nc(-c2cccc(NC(=O)c3c(F)cccc3F)c2)c(-c2ccnc(Nc3ccccc3)c2)[nH]1 [Compound 010]
5. CSc1nc(-c2cccc(NC(=O)c3cc(O)ccc3F)c2)c[nH]1 [Compound 060]
6. CSc1nc(-c2ccccc2NC(=O)C2CCCC2)c(-c2ccnc(NC(C)=O)c2)[nH]1 [Compound 022]
7. COc1cccc(C(=O)Nc2ccccc2-c2nc(SC)[nH]c2-c2ccnc(NC(C)=O)c2)c1 [Compound 025]

Given back:
1: > 100 µM; 2: > 100 µM; 3: > 100 µM; 4: 2.38 µM; 5: > 100 µM; 6: > 100 µM; 7: > 100 µM

Please report IC50 for every entry that follows.
1. CSc1nc(-c2cccc(NC(=O)Cc3c(F)cccc3F)c2)c(-c2ccnc(NC(C)=O)c2)[nH]1 [Compound 053]
2. CSc1nc(-c2cccc(NC(=O)Nc3ccc(Br)cc3)c2)c(-c2ccnc(NC(C)=O)c2)[nH]1 [Compound 015]
3. CSc1nc(-c2cc(NC(=O)c3c(F)cccc3F)cs2)c(-c2ccnc(NC(C)=O)c2)[nH]1 [Compound 011]

Given back:
1. 0.799 µM
2. 5.94 µM
3. > 100 µM

###

- testTarget: EGFR L858R/T790M/C797S Ba/F3 cells (Homo sapiens, UniProt P00533, T790M/C797S/L858R, cells depend on it)
- Sequence (P00533 whole entry T790M/C797S/L858R): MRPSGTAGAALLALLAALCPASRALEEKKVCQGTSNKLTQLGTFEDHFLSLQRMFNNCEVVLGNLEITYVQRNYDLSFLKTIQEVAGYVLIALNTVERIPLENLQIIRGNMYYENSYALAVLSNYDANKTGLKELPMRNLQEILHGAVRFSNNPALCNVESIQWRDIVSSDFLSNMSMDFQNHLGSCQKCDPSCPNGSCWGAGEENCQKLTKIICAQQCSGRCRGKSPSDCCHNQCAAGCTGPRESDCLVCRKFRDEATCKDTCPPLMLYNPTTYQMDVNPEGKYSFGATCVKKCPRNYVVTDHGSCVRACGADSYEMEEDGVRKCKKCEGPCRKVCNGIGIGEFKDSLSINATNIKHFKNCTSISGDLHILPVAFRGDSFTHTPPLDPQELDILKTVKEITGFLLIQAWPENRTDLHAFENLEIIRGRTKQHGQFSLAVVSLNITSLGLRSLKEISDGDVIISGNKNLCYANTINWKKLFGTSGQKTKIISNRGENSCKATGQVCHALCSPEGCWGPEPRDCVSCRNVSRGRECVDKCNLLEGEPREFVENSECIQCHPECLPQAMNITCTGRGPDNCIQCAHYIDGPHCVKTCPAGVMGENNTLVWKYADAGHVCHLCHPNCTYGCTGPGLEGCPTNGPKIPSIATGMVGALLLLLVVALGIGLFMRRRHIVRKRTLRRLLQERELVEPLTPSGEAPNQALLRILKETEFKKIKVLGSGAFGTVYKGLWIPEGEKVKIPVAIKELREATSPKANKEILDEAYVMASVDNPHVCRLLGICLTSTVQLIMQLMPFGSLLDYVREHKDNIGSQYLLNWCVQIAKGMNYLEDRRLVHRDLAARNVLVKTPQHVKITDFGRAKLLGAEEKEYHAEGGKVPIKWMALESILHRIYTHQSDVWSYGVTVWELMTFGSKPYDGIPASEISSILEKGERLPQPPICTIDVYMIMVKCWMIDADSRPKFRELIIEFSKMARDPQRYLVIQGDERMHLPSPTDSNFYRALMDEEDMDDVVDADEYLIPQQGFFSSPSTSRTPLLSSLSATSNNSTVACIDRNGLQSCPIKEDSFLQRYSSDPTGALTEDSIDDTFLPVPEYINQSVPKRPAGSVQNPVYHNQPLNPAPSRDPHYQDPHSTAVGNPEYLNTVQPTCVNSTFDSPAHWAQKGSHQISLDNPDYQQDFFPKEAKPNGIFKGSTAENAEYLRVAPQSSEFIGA
- testDetails: Ba/F3 cell proliferation (Cell Titer Glo), L858R/T790M/C797S
- condition: Ba/F3, 72 hours, value in parentheses, meaning not explained, read-out: L858R/T790M/C797S, inhibition of growth (value in parentheses)
valueType: EC50

Consider the worked cases shown below.
C=CC(=O)Nc1ccc(OC)c(Nc2cc(-c3[nH]c(SC)nc3-c3cccc(NC(=O)c4ccccc4CN4Cc5ccccc5C4=O)c3)ccn2)c1 [Compound 064] ... > 10 µM
CSc1nc(-c2cccc(NC(=O)c3ccccc3CN3Cc4ccccc4C3=O)c2)c(-c2ccnc(Nc3ccccc3)c2)[nH]1 [Compound 069] ... > 10 µM
CSc1nc(-c2cccc(NC(=O)c3c(F)ccc(O)c3CN3C(=O)c4ccccc4C3=O)c2)c(-c2ccnc(Nc3ccccc3)c2)[nH]1 [Compound 068] ... > 10 µM
CSc1nc(-c2cccc(NC(=O)c3ccccc3CN3Cc4ccccc4C3=O)c2)c(-c2ccnc(NC(C)=O)c2)[nH]1 [Compound 047] ... > 10 µM

Next, consider the following compound.
Asked: For the compound shown here, CSc1nc(-c2cccc(NC(=O)c3ccccc3CN3C(=O)c4ccccc4C3=O)c2)c(-c2ccnc(Nc3ccccc3)c2)[nH]1 [Compound 067] , give the reported EC50.
Given back: > 10 µM
